Cited source for all entries: ChEMBL document CHEMBL1127222

Catalogue of compounds with associated half-life
Assay: Half life period in buffer solution at pH 7.4
Assay type: ADME
Write the answer as a number in min, unit excluded.

- compound: "CC(=O)N(CO)C(Cc1ccccc1)C(N)=O (configuration not stated)"
  half-life, min: 38

Please examine the following record next.
What measured half-life goes with CC(=O)N(CO)C(Cc1ccccc1)C(=O)NCc1ccccc1 (configuration not stated) ?
63

====

Collected half-life values appear next to each entry.
Experiment: Half life period in the presence of alpha-chymotrypsin at the concentration of 0.5 mg/ml
Type: ADME
Value expressed in min; do not type the unit.

Use these answered entries as a reference point.
- compound: "CC(=O)N(CO)C(Cc1ccccc1)C(N)=O (centres undefined)"
  half-life / min: 35
- compound: "CC(=O)NC(Cc1ccccc1)C(=O)NCc1ccccc1 (centres undefined)"
  half-life / min: 450

Give its half-life value. Item: CC(=O)N(CO)C(Cc1ccccc1)C(=O)NCc1ccccc1 (centres undefined)
64

Which half-life value is on record for CC(=O)NC(Cc1ccccc1)C(N)=O (centres undefined) ?
294
